# Tested on: OVCAR-3
# Assay Text: NCI tumour cell line growth inhibition, 48 h
Activity calls are given as the source filed them. Rule as the data show it: active = GI50 up to about 1.1 µM and inactive = higher.
Allowed answers: 1 for active, 0 for inactive

| Compound | Answer Label |
| --- | --- |
| COc1cc2ccc(CC(=O)O)cc2cc1OC | 0 |
| Cn1c(-c2ccccc2)cc(-c2cccs2)c1-c1cccs1 | 0 |
| COC(=O)C(C(=O)C(=O)Nc1nc2ccc(OC)cc2s1)c1cnc2ccccc2n1 (stereo not given) | 0 |
| CC12CCCCC1(C)C2Sc1ccccc1 (stereo not given) | 0 |
| COc1ccc(CNc2nc(NCc3ccc(OC)cc3)nc(N3CCOCC3)n2)cc1 | 0 |
| Cc1cccc2c1C(=O)/C(=C/c1ccccc1C(=O)O)C2 | 0 |

Which outcome was entered for the compound `Oc1ccc(Cl)cc1CN1CCN(Cc2cc(Cl)ccc2O)C1` in this test?
1

I'd appreciate the recorded outcome for OCC(O)C(O)C(O)C1SC(c2ccccc2)=NN1c1ccccc1 (stereo not given) from this test.
0

Hey, what did the test say about C=C1CC(COc2cc(=O)oc3ccccc23)(c2ccccc2)OC1=O (stereo not given) ?
0

###

Listed compounds paired with reported GI50
# Test system: MOLT-4
# Assay Text: NCI tumour cell line growth inhibition, 48 h
Calls of active or inactive are those of the source. Rule as the data show it: active = GI50 up to about 1.1 µM and inactive = higher.

Past entries and their recorded results:
| Compound | Target Desc | GI50 |
| --- | --- | --- |
| CCOC(=O)c1cc2c([nH]1)C(=O)CC1=C2CCN1Cc1ccccc1 | MOLT-4 | 4.06 µM (inactive) |
| COc1ccc2c(c1)CC[C@@H]1C2CC[C@]2(C)OC(=O)CCC12 (stereo not given in full) | MOLT-4 | > 100 µM (inactive) |
| CN(C)CCCn1c2c3ccccc3ccc2c2oc(=O)c3ccccc3c21 | MOLT-4 | 0.986 µM (active) |
| CN(C)/N=N/c1[nH]cnc1C(N)=O [DACARBAZINE] | MOLT-4 | 20.7 µM (inactive) |
| Cc1ccc(-c2cc(-c3ccccc3)nc(N)n2)c(O)c1 | MOLT-4 | 3.52 µM (inactive) |

Give GI50 for the following compound: O=C(O)CCC(NC(=O)c1ccc(Nc2nc3ccc(C(F)(F)F)cc3nc2-c2ccccc2)cc1)C(=O)O (stereo not given)
> 100 µM (inactive)

Give me measured GI50, please, for this compound: COC(=O)CNC(=O)C(CSC(=O)OCC1c2ccccc2-c2ccccc21)NC(=O)CCC(NC(=O)OCC1c2ccccc2-c2ccccc21)C(=O)OC (stereo not given)
21.2 µM (inactive)

Supply reported GI50 belonging to this compound: C[C@@H]1O[C@@H](O[C@H]2[C@H](Oc3cc(O)c4c(=O)cc(-c5ccc(O)cc5)oc4c3)O[C@H](CO)[C@@H](O)[C@@H]2O)[C@H](O)[C@H](O)[C@H]1O [RHOIFOLIN]
> 100 µM (inactive)

Using the record for `COc1ccc(/C=N/n2c(Cc3ccc(Cl)cc3)n[nH]c2=O)cc1` , state its measured GI50.
> 100 µM (inactive)

Return the recorded GI50 value; entry: `CCOC(=O)c1ccc(/N=C/C=C(\Nc2ccc(C(=O)OCC)cc2)c2ccc3ccccc3c2)cc1`
3.97 µM (inactive)

Complete the entry with GI50 for `COC(=O)CCCc1nc2ccccc2nc1/N=N/c1ccccc1`
9.93 µM (inactive)

Provide only the value of recorded GI50 for `NCCSC(c1ccccc1)c1ccccc1`
15.7 µM (inactive)

Supply measured GI50 of O=C(O)CC1OCC=C2C[N+]3([O-])CCC45c6ccccc6NC4C1C2CC53 (stereo not given) in your reply.
> 100 µM (inactive)

Identify the reported GI50 for the following entry. `Cc1cc(S(=O)(=O)Nc2nnc3cnc4ccccc4n23)c(S)cc1Cl`
> 100 µM (inactive)

State its GI50: COC(=O)C(C(=O)C(=O)Nc1nc2ccc(OC)cc2s1)c1cnc2ccccc2n1 (stereo not given)
> 100 µM (inactive)

###

# Tested on: SK-OV-3
# Assay Text: NCI tumour cell line growth inhibition, 48 h
Calls of active or inactive are those of the source. Rule as the data show it: active = GI50 up to about 1.1 µM and inactive = higher.
Respond with a class label; see active, inactive

Recorded test call requested for `O=C1CCc2cc3c(cc21)CC1(Cc2ccccc2C1)C3`
inactive

What outcome does the record of this test show for C1=C(c2ccccc2)C(N2CCOCC2)Oc2ccccc21 (centres undefined) ?
inactive

Tell me the assay call for COc1cc(C)c(C2NC(=O)c3ccccc3N2)cc1C (centres undefined) please.
active

Per the assay record, what outcome was assigned to `O=C(/C=C/c1ccccc1)/C=N/N1C(=S)N(c2ccccc2)C(=N\c2ccccc2)/C1=N/c1ccccc1` ?
inactive

What is the recorded call for this compound in the test? `FC(F)(F)c1cccc(-c2nc3ccccc3c3c2[C@@]2(N4CCCC4)CCCC[C@@H]32)c1`
inactive

Name the outcome recorded for CCc1c(C)c(C#N)c(=S)n(C2OC(CO)C(O)C(O)C2O)c1C (centres undefined) in the assay.
inactive

Lab log entry: O=C(O)c1ccccc1CC(Cc1ccccc1)C(=O)O (centres undefined) — outcome as called in the assay?
inactive

Please share the test call associated with `O=C(C[n+]1ccccc1)N/N=C(\Cc1nc2ccc([N+](=O)[O-])cc2nc1O)C(=O)Nc1cc(Cl)c(Cl)cc1Cl` .
inactive

For COC(=O)C1=C(O)c2cc(OC)c(OC)c(OC)c2C(c2ccc3c(c2)OCO3)[C@@H]1C(=O)OC (some centres undefined) , which call appears in the assay record?
inactive

Could you check what this test reported for COC(=O)[C@@H]1CS(=O)(=O)C(C(C)C)N1C(C)=O (some centres undefined) ?
inactive

Tell me the assay call for CCC1(N=[N+]=[N-])C(=O)c2ccccc2N(c2ccccc2)C1=O (centres undefined) please.
inactive

Which outcome was entered for the compound `CCN(CC)c1ccc2cc(C(=O)Nc3ccccn3)c(=N)oc2c1` in this test?
inactive

I'd appreciate the recorded outcome for CC(C)c1cc(C(C)C)c(S(=O)(=O)N/N=C2\CC3CCC2(C)C3(C)C)c(C(C)C)c1 (centres undefined) from this test.
inactive

Please share the test call associated with `Cn1nc(-c2ccccc2)c(C(=O)/C=C/c2ccccc2)c(N2CCOCC2)c1=O` .
inactive

Status in this test for COC(=O)C(C(=O)C(=O)Nc1nc2ccc(OC)cc2s1)c1cnc2ccccc2n1 (centres undefined) ?
inactive

Entry `CCOC(=O)c1cc2c([nH]1)C(=O)CC1=C2CCN1Cc1ccccc1` : call = ?
inactive

Given CC1NC(=O)c2c(-c3ccccc3)nn(-c3ccccc3)c2NC1=O (centres undefined) , state the outcome it received in this test.
inactive

Tell me the recorded outcome of this test for `O=c1c2ccccc2oc2ccccc12.Oc1cccc2cccnc12` .
active

Outcome logged for `NCCN1CC2CCC(CC2)C1` in this assay:
inactive

Per the assay record, what outcome was assigned to `Cc1nc(C)c(N2CCN(C(=O)O)CC2)c(O)n1` ?
inactive

Hello, I am checking results. What call was entered for `CN(C)CCC(=O)N1C/C(=C\c2ccc(Cl)c(Cl)c2)C(=O)/C(=C/c2ccc(Cl)c(Cl)c2)C1` ?
inactive

What call does the record list for `NS(=O)(=O)c1ccc(NC(=O)N/N=C/c2ccccc2[N+](=O)[O-])cc1` ?
inactive

###

# Tested on: MDA-MB-231
# Assay Text: NCI tumour cell line growth inhibition, 48 h
The source made the active and inactive calls. Cut-off read from the data, not from the text of the source: active = GI50 up to about 1.1 µM and inactive = higher.
Pick from 1 (yes) (active), 0 (no) (inactive) when you respond.

| Molecule | Answer Label |
| --- | --- |
| CNC(=O)OC(C)CN1c2ccccc2Sc2ccccc21 (stereo not drawn) | 0 (no) |
| COC(=O)c1sc(=S)sc1SCc1cccc(CSc2sc(=S)sc2C(=O)OC)c1 | 0 (no) |

Recorded call for `CC(C)(C)OC(=O)c1ccc(NCC2=C(Br)C(=O)C=CC2=O)cc1` ?
0 (no)

Could you check what this test reported for `CCOC(=O)CC(=O)Nc1c(C(=O)OCC)sc2nc(SC)nc(Nc3ccc(OC)c(OC)c3)c12` ?
0 (no)

###

# Test system: K562
# Assay Text: NCI tumour cell line growth inhibition, 48 h
The source made the active and inactive calls. No stated cut-off is given here; in the data, active = GI50 up to about 1.1 µM and inactive = higher.
Form field: GI50 (one value per entry).

Find the measured GI50 of `O=C1NC(=S)N/C1=C\c1ccc(Sc2ccccc2C(=O)O)s1` and report it.
93.5 µM (inactive)

Answer with the recorded GI50 for the molecule listed here: CC(=O)OCC1OC(n2c(S)c(C#N)c(-c3ccccc3)c(C#N)c2=O)C(OC(C)=O)C(OC(C)=O)C1OC(C)=O (stereo not drawn)
> 100 µM (inactive)

Specify measured GI50 for COC(=O)C(Cc1ccccc1)NS(=O)(=O)c1ccc(-c2c3nc(c(-c4ccc(S(=O)(=O)NC(Cc5ccccc5)C(=O)OC)cc4)c4ccc([nH]4)c(-c4ccc(S(=O)(=O)NC(Cc5ccccc5)C(=O)OC)cc4)c4nc(c(-c5ccc(S(=O)(=O)NC(Cc6ccccc6)C(=O)OC)cc5)c5ccc2[nH]5)C=C4)C=C3)cc1 (stereo not drawn) .
> 100 µM (inactive)

Please look at this molecule and report its GI50: O=C(O)CCC1COc2ccccc2O1 (stereo not drawn)
> 10 µM (inactive)

Tell us which GI50 value is on record for `COc1cc2c3cc1Oc1c(O)c(OC)cc4c1[C@H](Cc1ccc(cc1)Oc1cc(ccc1O)C[C@H]3N(C)CC2)N(C)CC4`
2.56 µM (inactive)

Provide only the value of recorded GI50 for `COc1ccc(/C=N/n2c(Cc3ccc(Cl)cc3)n[nH]c2=O)cc1`
> 100 µM (inactive)

Output measured GI50 for this item: `Cn1c(-c2ccccc2)cc(-c2cccs2)c1-c1cccs1`
51.6 µM (inactive)

Using known records, supply GI50 for OCC(O)C(O)C(O)C1SC(c2ccccc2)=NN1c1ccccc1 (stereo not drawn)
> 70.1 µM (inactive)
